B1: CCDC6 (parent)
chain: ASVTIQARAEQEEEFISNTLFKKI

- Variants of: B1
- run.description: protein stability index of a GFP-peptide fusion (GPS, HEK-293T) (PSI 1-6); higher = more stable;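 note: lentivirally expressed fusions sorted by FACS into six bins by GFP to DsRed ratio, PSI derived from sequencing read proportions per bin multiplied by bin number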
- experimental.context: c terminus: a fixed tail appended
Decision: protein stability index compared against 4; not below it gives yes, below it gives no.

mutation.label: T4D
label.value: yes
//
mutation.label: E14A
label.value: no
//
mutation.label: A1K
label.value: no
//
mutation.label: V3L
label.value: no
//
mutation.label: N18A
label.value: no
//
mutation.label: A1I
label.value: no
//
mutation.label: N18Q
label.value: no
//
mutation.label: K22Y
label.value: no
//
mutation.label: E13I
label.value: no
//
mutation.label: E14N
label.value: no
//
mutation.label: I16W
label.value: no
//
mutation.label: A1P
label.value: no
//
mutation.label: R8D
label.value: yes
//
mutation.label: K23H
label.value: no
//
mutation.label: K22G
label.value: no
//
mutation.label: T19Q
label.value: no
//
mutation.label: I24E
label.value: yes
//
mutation.label: E14R
label.value: no
//
mutation.label: Q6I
label.value: no
//
mutation.label: E13K
label.value: no
//
mutation.label: L20Y
label.value: no
//
mutation.label: A1E
label.value: yes
//
mutation.label: T4S
label.value: no
//
mutation.label: I5H
label.value: yes
//
mutation.label: Q11P
label.value: no
//
mutation.label: T19N
label.value: no
//
mutation.label: R8T
label.value: no
//
mutation.label: K23D
label.value: no
//
mutation.label: E13M
label.value: no
//
mutation.label: R8Y
label.value: no
//
mutation.label: F21W
label.value: no
//
mutation.label: A9F
label.value: no
//
mutation.label: I5E
label.value: yes
//
mutation.label: Q11L
label.value: no
//
mutation.label: S2I
label.value: no
//
mutation.label: V3E
label.value: yes
//
mutation.label: N18M
label.value: no
//
mutation.label: V3A
label.value: yes
//
mutation.label: F15Q
label.value: yes
//
mutation.label: L20D
label.value: yes
//
mutation.label: S17R
label.value: no
